Data origin, for the record: patent US20260256925A1

tested.target: ER (Homo sapiens)
Construct: endogenous in cells; probably T47D or MCF-7
Sequence (P03372 1-595): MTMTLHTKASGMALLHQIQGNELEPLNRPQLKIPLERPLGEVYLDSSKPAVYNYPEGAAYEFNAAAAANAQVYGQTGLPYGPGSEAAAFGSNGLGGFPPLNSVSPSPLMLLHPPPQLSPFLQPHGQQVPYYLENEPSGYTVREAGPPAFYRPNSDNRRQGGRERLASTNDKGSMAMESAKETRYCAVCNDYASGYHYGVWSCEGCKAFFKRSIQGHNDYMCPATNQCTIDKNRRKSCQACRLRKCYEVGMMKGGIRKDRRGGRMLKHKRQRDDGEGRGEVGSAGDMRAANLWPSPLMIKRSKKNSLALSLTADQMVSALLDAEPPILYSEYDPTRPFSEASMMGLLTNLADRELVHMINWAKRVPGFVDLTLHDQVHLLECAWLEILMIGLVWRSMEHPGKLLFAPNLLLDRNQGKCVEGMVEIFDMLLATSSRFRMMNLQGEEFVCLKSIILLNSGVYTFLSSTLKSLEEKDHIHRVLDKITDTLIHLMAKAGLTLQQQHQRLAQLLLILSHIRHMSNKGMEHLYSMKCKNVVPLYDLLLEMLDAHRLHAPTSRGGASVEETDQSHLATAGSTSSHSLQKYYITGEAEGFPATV
assay.name: In-cell Western (ICW) ER degradation assay in T47D cells
Format: cell-based
condition.details: T47D, T47D cells, 16 hrs; read-out: ER T47D ICW Dmax (%)
attribute.measured: Dmax

Please review the entries below; each comes with its answer.
{"columns": ["molecule", "Dmax"],
 "data": [
  ["C[C@H]1Cc2c(ccc3[nH]ncc23)[C@@H](c2ccc(N3CCC(CN4CCN5c6cc7c(cc6OC[C@H]5C4)C(=O)N([C@@H]4CCC(=O)NC4=O)C7)CC3)nc2)N1CC(F)(F)F (stereo in doubt) [Compound A20]", "50 to 75%"],
  ["C[C@H]1Cc2c(ccc3[nH]ncc23)[C@H](c2ccc(N3CCC4(CC3)CC(CN3CCC(c5ccc(NC6CCC(=O)NC6=O)cc5)CC3)C4)cn2)N1CC(F)(F)F (stereo in doubt) [Compound A10]", "50 to 75%"]
]}

May I ask what Dmax has been recorded for C[C@@H]1Cc2c(ccc3[nH]ncc23)[C@H](c2ccc(N3CCC(CN4CCN5c6ccc7c(c6OC[C@H]5C4)CN([C@H]4CCC(=O)NC4=O)C7=O)CC3)nc2)N1CC(F)(F)F [Compound A19] ?
50 to 75%

---

tested.target: ER (Homo sapiens, UniProt P03372)
Construct: endogenous in cells; probably T47D or MCF-7
assay.name: In-cell Western (ICW) ER degradation assay in MCF-7 cells
Type: cell-based
condition.details: MCF7, read-out: ER MCF7 ICW Dmax (%)
The entries below are paired with their reported Dmax.

Please review the entries below; each comes with its answer.
{"columns": ["molecule", "result"],
 "data": [
  ["C[C@@H]1Cc2c(ccc3[nH]ncc23)[C@@H](c2ccc(N3CCC(CN4CCN5c6cc7c(cc6OC[C@@H]5C4)C(=O)N([C@H]4CCC(=O)NC4=O)C7)CC3)nc2)N1CC(F)(F)F", "50 to 75%"],
  ["C[C@@H]1Cc2c(ccc3[nH]ncc23)[C@@H](c2ccc(N3CC4(CCC(CN5CCN6c7ccc8c(c7OC[C@H]6C5)CN(C5CCC(=O)NC5=O)C8=O)CC4)C3)cn2)N1CC1(F)CC1 (some centres unmarked)", "> 75%"],
  ["C[C@@H]1Cc2c(ccc3[nH]ncc23)C(c2ccc(N3CCC4(CC3)CC(CN3CCN5c6ccc7c(c6OC[C@H]5C3)CN([C@H]3CCC(=O)NC3=O)C7=O)C4)nc2)N1CC(F)(F)F (stereo in doubt) [Compound A25]", "> 75%"]
]}

May I ask what Dmax has been recorded for `C[C@@H]1Cc2c(ccc3[nH]ncc23)[C@H](c2ccc(N3CCC(CN4CCN5c6ccc7c(c6OC[C@H]5C4)CN([C@H]4CCC(=O)NC4=O)C7=O)CC3)nc2)N1CC(F)(F)F` ?
50 to 75%

May I ask what Dmax has been recorded for C[C@@H]1Cc2c(ccc3[nH]ncc23)C(c2ccc(N3CCC4(CC3)CC(CN3CCN5c6ccc7c(c6OC[C@H]5C3)CN([C@H]3CCC(=O)NC3=O)C7=O)C4)nc2)N1CC(F)(F)F (stereo in doubt) [Compound A26] ?
> 75%
